tgt: T1, recombinant C-terminally truncated RSV (A2 strain) F protein (RSV (A2 strain), UniProt P03420 26-524)
T1 construct: extracellular domain; also called truncated F protein; extracellular domain of the F protein from RSV A2
test-method-notes: SPR (BIAcore), Fab over immobilised F
A collection of binders and their measured kon
property: kon (M⁻¹ s⁻¹)

[[record]]
binder = "A3e2 Fab (Fab, V domains shown) VH: QVTLRESGPALVKPTQTLTLTCTFSGFSLSTAGMSVGWIRQPPGKALEWLADIWWGDKGHYNPSLKDRLTISKDTSKNQVVLKVTNMDPADTATYYCARDMIFNWYFDVWGQGTTVTVSS VL: DIQMTQSPSTLSASVGDRVTITCSASSSVGYMHWYQQKPGKAPKLLIYDTFYLHSGVPSRFSGSGSGTEFTLTISSLQPDDFATYYCFQGSGYPFTFGGGTKVEIK"
unit_tag = "M⁻¹ s⁻¹"
recorded_value = 599000

[[record]]
binder = "P12f2 Fab (Fab, V domains shown) VH: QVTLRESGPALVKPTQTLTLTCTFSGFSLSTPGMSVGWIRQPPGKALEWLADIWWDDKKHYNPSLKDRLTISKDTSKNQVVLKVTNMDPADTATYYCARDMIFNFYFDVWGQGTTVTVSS VL: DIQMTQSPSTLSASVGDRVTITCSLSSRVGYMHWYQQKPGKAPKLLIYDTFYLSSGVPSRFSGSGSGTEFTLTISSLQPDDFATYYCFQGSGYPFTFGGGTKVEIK"
unit_tag = "M⁻¹ s⁻¹"
recorded_value = 535000

[[record]]
binder = "A1e9 Fab (Fab, V domains shown, also called Ale9) VH: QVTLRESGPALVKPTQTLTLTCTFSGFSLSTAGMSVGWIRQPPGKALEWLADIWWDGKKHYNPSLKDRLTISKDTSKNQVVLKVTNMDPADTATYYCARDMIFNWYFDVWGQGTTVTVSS VL: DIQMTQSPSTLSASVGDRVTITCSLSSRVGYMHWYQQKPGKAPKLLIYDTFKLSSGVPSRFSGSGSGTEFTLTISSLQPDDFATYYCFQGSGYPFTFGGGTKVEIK"
unit_tag = "M⁻¹ s⁻¹"
recorded_value = 523000

[[record]]
binder = "A17b5 Fab (Fab, V domains shown) VH: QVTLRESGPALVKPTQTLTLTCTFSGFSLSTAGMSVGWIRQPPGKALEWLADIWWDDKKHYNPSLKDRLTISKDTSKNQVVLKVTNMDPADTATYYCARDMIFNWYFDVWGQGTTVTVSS VL: DIQMTQSPSTLSASVGDRVTITCSLSSRVGYMHWYQQKPGKAPKLLIYDTYYLPSGVPSRFSGSGSGTEFTLTISSLQPDDFATYYCFQGSGYPFTFGGGTKVEIK"
unit_tag = "M⁻¹ s⁻¹"
recorded_value = 590000

[[record]]
binder = "A13a11 Fab (Fab, V domains shown) VH: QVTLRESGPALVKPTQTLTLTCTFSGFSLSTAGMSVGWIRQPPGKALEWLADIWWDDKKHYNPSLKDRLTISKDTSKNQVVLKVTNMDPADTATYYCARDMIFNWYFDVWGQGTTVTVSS VL: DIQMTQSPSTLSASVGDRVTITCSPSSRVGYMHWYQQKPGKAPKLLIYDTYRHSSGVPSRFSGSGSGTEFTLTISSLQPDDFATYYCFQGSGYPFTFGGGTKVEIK"
unit_tag = "M⁻¹ s⁻¹"
recorded_value = 680000

[[record]]
binder = "A13c4 Fab (Fab, V domains shown) VH: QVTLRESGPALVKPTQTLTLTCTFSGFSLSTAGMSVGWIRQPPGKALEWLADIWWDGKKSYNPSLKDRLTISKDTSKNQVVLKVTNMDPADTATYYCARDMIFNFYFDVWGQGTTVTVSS VL: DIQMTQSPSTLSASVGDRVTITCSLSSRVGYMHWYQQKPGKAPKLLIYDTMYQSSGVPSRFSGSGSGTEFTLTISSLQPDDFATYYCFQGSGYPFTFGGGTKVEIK"
unit_tag = "M⁻¹ s⁻¹"
recorded_value = 650000

[[record]]
binder = "A16b4 Fab (Fab, V domains shown) VH: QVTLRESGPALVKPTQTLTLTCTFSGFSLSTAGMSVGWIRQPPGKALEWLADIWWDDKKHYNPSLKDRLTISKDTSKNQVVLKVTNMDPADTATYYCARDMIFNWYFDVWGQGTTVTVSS VL: DIQMTQSPSTLSASVGDRVTITCLLSSRVGYMHWYQQKPGKAPKLLIYDTMYQASGVPSRFSGSGSGTEFTLTISSLQPDDFATYYCFQGSGYPFTFGGGTKVEIK"
unit_tag = "M⁻¹ s⁻¹"
recorded_value = 490000

[[record]]
binder = "A14a4 Fab (Fab, V domains shown) VH: QVTLRESGPALVKPTQTLTLTCTFSGFSLSTAGMSVGWIRQPPGKALEWLADIWWDDKKSYNPSLKDRLTISKDTSKNQVVLKVTNMDPADTATYYCARDMITNWYFDVWGQGTTVTVSS VL: DIQMTQSPSTLSASVGDRVTITCLLSSRVGYMHWYQQKPGKAPKLLIYDTYYQTSGVPSRFSGSGSGTEFTLTISSLQPDDFATYYCFQGSGYPFTFGGGTKVEIK"
unit_tag = "M⁻¹ s⁻¹"
recorded_value = 332000

[[record]]
binder = "A17f5 Fab (Fab, V domains shown) VH: QVTLRESGPALVKPTQTLTLTCTFSGFSLSTAGMSVGWIRQPPGKALEWLADIWWDDKKDYNPSLKDRLTISKDTSKNQVVLKVTNMDPADTATYYCARDMIFNWYFDVWGQGTTVTVSS VL: DIQMTQSPSTLSASVGDRVTITCSLSSRVGYMHWYQQKPGKAPKLLIYDTFRHTSGVPSRFSGSGSGTEFTLTISSLQPDDFATYYCFQGSGYPFTFGGGTKVEIK"
unit_tag = "M⁻¹ s⁻¹"
recorded_value = 544000

[[record]]
binder = "A17d4(1) Fab (Fab, V domains shown) VH: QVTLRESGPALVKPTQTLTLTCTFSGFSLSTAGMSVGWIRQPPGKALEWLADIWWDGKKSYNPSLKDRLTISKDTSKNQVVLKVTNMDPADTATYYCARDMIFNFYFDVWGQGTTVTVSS VL: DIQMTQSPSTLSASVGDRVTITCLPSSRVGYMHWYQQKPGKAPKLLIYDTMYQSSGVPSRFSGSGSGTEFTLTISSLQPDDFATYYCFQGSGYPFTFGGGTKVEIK"
unit_tag = "M⁻¹ s⁻¹"
recorded_value = 531000

[[record]]
binder = "A4b4 Fab (Fab, V domains shown) VH: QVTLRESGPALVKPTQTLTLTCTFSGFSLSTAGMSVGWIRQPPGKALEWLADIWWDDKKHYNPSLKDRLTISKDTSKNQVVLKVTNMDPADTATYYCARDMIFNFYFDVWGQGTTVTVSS VL: DIQMTQSPSTLSASVGDRVTITCSASSRVGYMHWYQQKPGKAPKLLIYDTFFLDSGVPSRFSGSGSGTEFTLTISSLQPDDFATYYCFQGSGYPFTFGGGTKVEIK"
unit_tag = "M⁻¹ s⁻¹"
recorded_value = 604000

